- experimental-system: BRD4 BD1 (Homo sapiens)
- protocol: AlphaScreen binding assay, BRD4 Bromodomain 1
pIC50: −log10 of the molar value.
value-kind: pIC50

Record CC(=O)N1c2ccccc2N(C(=O)c2cnn3c2OCCC3)C[C@@H]1C , field pIC50: < 5.00

Record CC(=O)N1c2ccc(-c3cnn(C(C)(C)C(N)=O)c3)cc2N(C(=O)C2CC2)C[C@@H]1C , field pIC50: 5.00 to 6.00

Record CC(=O)N1c2ccc(-c3cnn(C)c3)cc2N(C(=O)c2ccco2)C[C@@H]1C , field pIC50: 6.00 to 7.00

Record CC(=O)N1c2ccccc2N(C(=O)c2ccc(Oc3ccccc3)cc2)C[C@@H]1C , field pIC50: < 5.00
